- Test system: Jurkat
- test.method.notes: Cytotoxicity against human Jurkat cells assessed as growth inhibition after 72 hrs by MTT assay
- Format: functional, cell-based
measurement.name: log10(IC50) (log10 of the value in nM)

[[record]]
structure_as_smiles = "C=C(Br)C(=O)Nc1cccc(/C=C/C(=O)Nc2ccc(F)c(F)c2)c1"
recorded_value = 2.74

[[record]]
structure_as_smiles = "C=C(Br)C(=O)Nc1cccc(/C=C/C(=O)Nc2ccc(F)cc2)c1"
recorded_value = 3.79

[[record]]
structure_as_smiles = "C=C(Br)C(=O)Nc1cccc(/C=C/C(=O)Nc2ccc(SC(F)(F)F)cc2)c1"
recorded_value = 4.48

[[record]]
structure_as_smiles = "C=C(Br)C(=O)Nc1cccc(/C=C/C(=O)Nc2cc(OC)c(OC)c(OC)c2)c1"
recorded_value = 2.46

[[record]]
structure_as_smiles = "C=C(Br)C(=O)Nc1cccc(/C=C/C(=O)Nc2cccc(F)c2)c1"
recorded_value = 3.00

[[record]]
structure_as_smiles = "C=C(Br)C(=O)Nc1ccc(/C=C/C(=O)Nc2ccc(OC)cc2)cc1"
recorded_value = 3.15

[[record]]
structure_as_smiles = "C=C(Br)C(=O)Nc1cccc(/C=C/C(=O)Nc2cccc3ccccc23)c1"
recorded_value = 2.83

[[record]]
structure_as_smiles = "C=C(Br)C(=O)Nc1cccc(/C=C/C(=O)Nc2ccccc2)c1"
recorded_value = 3.70

[[record]]
structure_as_smiles = "C=C(Br)C(=O)Nc1cccc(/C=C/C(=O)Nc2ccc(OC)c(OC)c2)c1"
recorded_value = 2.28

[[record]]
structure_as_smiles = "COc1cc(NC(=O)/C=C/c2cccc(OCc3ccccc3)c2)cc(OC)c1OC"
recorded_value = 3.54


----------
- Tested on: HT-29
- test.method.notes: Cytotoxicity against human HT-29 cells assessed as growth inhibition after 72 hrs by MTT assay
- Type: functional, cell-based
- condition.label: HT-29, 72 h
# binning rule on IC50: lower = under 4 µM, middle = from 4 µM up to 20 µM, upper = 20 µM and over

[[record]]
structure_as_smiles = "C=C(Br)C(=O)Nc1cccc(/C=C/C(=O)Nc2ccc(OC)c(OC)c2)c1"
class_label = "lower"

[[record]]
structure_as_smiles = "C=C(Br)C(=O)Nc1cccc(/C=C/C(=O)Nc2cccc3ccccc23)c1"
class_label = "middle"

[[record]]
structure_as_smiles = "C=C(Br)C(=O)Nc1ccc(/C=C/C(=O)Nc2cc(OC)c(OC)c(OC)c2)cc1"
class_label = "lower"

[[record]]
structure_as_smiles = "C=C(Br)C(=O)Nc1cccc(/C=C/C(=O)Nc2ccc(F)cc2)c1"
class_label = "upper"

[[record]]
structure_as_smiles = "C=C(Br)C(=O)Nc1cccc(/C=C/C(=O)Nc2ccc(SC(F)(F)F)cc2)c1"
class_label = "upper"

[[record]]
structure_as_smiles = "C=C(Br)C(=O)Nc1cccc(/C=C/C(=O)Nc2ccc(N3CCOCC3)cc2)c1"
class_label = "lower"

[[record]]
structure_as_smiles = "C=C(Br)C(=O)Nc1cccc(/C=C/C(=O)Nc2ccccc2)c1"
class_label = "middle"

[[record]]
structure_as_smiles = "C=C(Br)C(=O)Nc1cccc(/C=C/C(=O)Nc2ccc(Cl)cc2)c1"
class_label = "middle"

[[record]]
structure_as_smiles = "C=C(Br)C(=O)Nc1cccc(/C=C/C(=O)Nc2cccc(F)c2)c1"
class_label = "middle"

